# Species on record: Rattus norvegicus
# experiment.notes: Selectivity ratio of Ki for sigma 1 receptor in rat brain to Ki for sigma 2 receptor in rat liver membrane
# Assay type: cell membranes
metric: Ratio Ki

Sample records with Ratio Ki:
INSERT INTO measurements (test_smiles, readout_number) VALUES
  ('COc1cc2c(cc1OC)CN(CCCCn1cc(CCCF)c3ccccc31)CC2', 9.2),
  ('N#CC1(c2ccccc2)CCN(CCCCc2cn(-c3ccc(I)cc3)c3ccccc23)CC1', 20.9),
  ('COc1cc2c(cc1OC)CN(CCCCn1cc(CCF)c3ccccc31)CC2', 17.9),
  ('FCCOc1ccc(N2CCN(CCCCc3cn(-c4ccc(F)cc4)c4ccccc34)CC2)cc1', 9),
  ('COc1cc2c(cc1OC)CN(CCCCc1cn(-c3ccc(F)cc3)c3ccccc13)CC2', 10.8);

I: FCCc1cn(CCCCN2CCC3(CC2)OCc2ccccc23)c2ccccc12
II: FCCOCCOc1ccc(N2CCN(CCCCc3cn(-c4ccc(F)cc4)c4ccccc34)CC2)cc1
Could you kindly indicate whether I or II has the higher Ratio Ki value? Answer by quoting the chosen item's label.
II
(II: 2.4, I: 0.4)

a: FCCn1cc(CCCCN2CCC3(CC2)OCc2ccccc23)c2ccccc21
b: FCCOCCOCCOc1ccc(N2CCN(CCCCc3cn(-c4ccc(F)cc4)c4ccccc34)CC2)cc1
Please indicate which has the smaller reported Ratio Ki: a , or b . Answer by quoting the chosen item's label.
b

I: COc1cc2c(cc1OC)CN(CCCCc1cn(-c3ccc(F)cc3)c3ccccc13)C2
II: COc1cc2c(cc1OC)CN(CCCCC(=O)c1ccc(F)cc1)CC2
Could you kindly indicate whether I or II has the higher Ratio Ki value? Answer by quoting the chosen item's label.
I
(I: 4.8, II: 1.3)

* * *

# experiment.notes: Displacement of [3H]-DTG from sigma 2 receptor in rat liver membrane by competition binding assay in presence of dextrallorphan
# Format: cell membranes
metric: Ki (µM)

a: COc1cc2c(cc1OC)CN(CCCCn1cc(CCF)c3ccccc31)CC2
b: COc1cc2c(cc1OC)CN(CCCCc1cn(-c3ccc(F)cc3)c3ccccc13)C2
Could you kindly indicate whether a or b has the higher Ki value? Answer by quoting the chosen item's label.
b
(b: 0.0538 µM, a: 0.0275 µM)

a: COc1cc2c(cc1OC)CN(CCCCC(=O)c1ccc(F)cc1)CC2
b: FCCn1cc(CCCCN2CCC3(CC2)OCc2ccccc23)c2ccccc21
Could you kindly indicate whether a or b has the higher Ki value? Answer by quoting the chosen item's label.
b
(b: 0.044 µM, a: 0.0124 µM)

a: FCCOCCOCCOc1ccc(N2CCN(CCCCc3cn(-c4ccc(F)cc4)c4ccccc34)CC2)cc1
b: FCCOc1cccc(N2CCN(CCCCc3cn(-c4ccc(F)cc4)c4ccccc34)CC2)c1
Could you kindly indicate whether a or b has the higher Ki value? Answer by quoting the chosen item's label.
a
(a: 1.88 µM, b: 0.0484 µM)

* * *

# experiment.notes: Displacement of [3H]-DTG from sigma 2 receptor in rat brain by competition binding assay
# Assay type: tissue-based
metric: pIC50
# pIC50: negative log10 of molar concentration; output just the value

Recall and state the measured pIC50 for Fc1ccc(-n2cc(CCCCN3CCC4(CC3)OCc3ccccc34)c3ccccc32)cc1 [SIRAMESINE] .
9.92

* * *

# assayed.target: Sigma non-opioid intracellular receptor 1 (Rattus norvegicus)
# experiment.notes: Displacement of [3H]-(+)-pentazocine from sigma 1 receptor in rat brain by competition binding assay
metric: Ki (nM)

INSERT INTO results (test_smiles, assayed_target, readout_number) VALUES
  ('FCCc1cn(CCCCN2CCC3(CC2)OCc2ccccc23)c2ccccc12', 'Sigma non-opioid intracellular receptor 1 (Rattus norvegicus)', 11),
  ('COc1cc2c(cc1OC)CN(CCCCc1cn(-c3ccc(F)cc3)c3ccccc13)CC2', 'Sigma non-opioid intracellular receptor 1 (Rattus norvegicus)', 531),
  ('COc1cc2c(cc1OC)CN(CCCCC(=O)c1ccc(F)cc1)CC2', 'Sigma non-opioid intracellular receptor 1 (Rattus norvegicus)', 16.6);

P: FCCOCCOc1ccc(N2CCN(CCCCc3cn(-c4ccc(F)cc4)c4ccccc34)CC2)cc1
Q: COc1cc2c(cc1OC)CN(CCCCn1cc(CCCF)c3ccccc31)CC2
R: COc1cc2c(cc1OC)CN(CCCCn1cc(CCF)c3ccccc31)CC2
S: FCCOCCOCCOc1ccc(N2CCN(CCCCc3cn(-c4ccc(F)cc4)c4ccccc34)CC2)cc1
// ranking: key=Ki, reverse=True I would appreciate it if you listed the labels in the requested order.
S, P, R, Q

* * *

# experiment.notes: Displacement of [3H]-DTG from sigma 2 receptor in rat liver membrane by competition binding assay in presence of dextrallorphan
# Format: cell membranes
metric: Ki (nM)

Sample records with Ki:
INSERT INTO assay_data (compound, metric, units_label, readout_number) VALUES
  ('FCCOCCOc1ccc(N2CCN(CCCCc3cn(-c4ccc(F)cc4)c4ccccc34)CC2)cc1', 'Ki', 'nM', 458),
  ('N#CC1(c2ccccc2)CCN(CCCCc2cn(-c3ccc(F)cc3)c3ccccc23)CC1', 'Ki', 'nM', 3.03),
  ('FCCOc1ccc(N2CCN(CCCCc3cn(-c4ccc(F)cc4)c4ccccc34)CC2)cc1', 'Ki', 'nM', 68),
  ('FCCc1cn(CCCCN2CCC3(CC2)OCc2ccccc23)c2ccccc12', 'Ki', 'nM', 29.8);

1: COc1cc2c(cc1OC)CN(CCCCn1cc(CCCF)c3ccccc31)CC2
2: COc1cc2c(cc1OC)CN(CCCCc1cn(-c3ccc(F)cc3)c3ccccc13)CC2
Please indicate which has the smaller reported Ki: 1 , or 2 . Answer by quoting the chosen item's label.
1

* * *

# assayed.target: Sigma non-opioid intracellular receptor 1 (Rattus norvegicus, UniProt Q9R0C9)
# Sequence (Q9R0C9 whole entry): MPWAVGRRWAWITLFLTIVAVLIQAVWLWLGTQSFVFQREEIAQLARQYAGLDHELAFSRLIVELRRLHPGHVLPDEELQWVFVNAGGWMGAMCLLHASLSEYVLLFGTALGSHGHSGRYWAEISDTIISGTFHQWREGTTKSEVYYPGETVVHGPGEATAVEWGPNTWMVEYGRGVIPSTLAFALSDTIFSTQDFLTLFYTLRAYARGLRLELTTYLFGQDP
# experiment.notes: Displacement of [3H]-(+)-pentazocine from sigma 1 receptor in rat brain by competition binding assay
metric: Ki (nM)

Sample records with Ki:
INSERT INTO results (test_smiles, assayed_target, metric, readout_number) VALUES
  ('FCCn1cc(CCCCN2CCC3(CC2)OCc2ccccc23)c2ccccc21', 'Sigma non-opioid intracellular receptor 1 (Rattus norvegicus, UniProt Q9R0C9)', 'Ki', 246),
  ('COc1cc2c(cc1OC)CN(CCCCc1cn(-c3ccc(F)cc3)c3ccccc13)C2', 'Sigma non-opioid intracellular receptor 1 (Rattus norvegicus, UniProt Q9R0C9)', 'Ki', 256),
  ('N#CC1(c2ccccc2)CCN(CCCCc2cn(-c3ccc(I)cc3)c3ccccc23)CC1', 'Sigma non-opioid intracellular receptor 1 (Rattus norvegicus, UniProt Q9R0C9)', 'Ki', 386),
  ('N#CC1(c2ccccc2)CCN(CCCCc2cn(-c3ccc(F)cc3)c3ccccc23)CC1', 'Sigma non-opioid intracellular receptor 1 (Rattus norvegicus, UniProt Q9R0C9)', 'Ki', 2.58);

A: FCCOc1ccc(N2CCN(CCCCc3cn(-c4ccc(F)cc4)c4ccccc34)CC2)cc1
B: FCCOc1cccc(N2CCN(CCCCc3cn(-c4ccc(F)cc4)c4ccccc34)CC2)c1
Could you kindly indicate whether A or B has the higher Ki value? Answer by quoting the chosen item's label.
A
